# Test system: K562 CRISPRi cells
# PROTOCOL SUMMARY: Constant region variant library pooled growth screen, K562
# Format: cell-based, human
# REPORTED CONDITIONS: sgRNA constant region variants; activity relative to the original, un-modified constant region cr995
# Source text: We calculated relative activities for each targeting sequence:constant region pair by normalizing its phenotype to that of the targeting sequence paired with the unmodified constant region, identifying 409 constant region variants that on average conferred intermediate activity (0.1-0.9, FIG. 5B). Ten variants selected for individual evaluation also mediated intermediate levels of mRNA knockdown (FIG. 6B). […]
OUTCOME MEASURE: Mean relative activity
Answers are plain numbers.

cr149 (nucleic acid, listed as DNA, chemistry not fully specified) guide: GTTTAAGAGCTAAGCTGGAAACAGCATAGCAAGTTTAAATAACGCTAGTCGGTTATCAACTTGAAAAAGTGTCACCGAGTCGGTGAT = 0.00167
cr921 (nucleic acid, listed as DNA, chemistry not fully specified) guide: GTTTAAGAGCTAAGCTGGAAACAGCATAGCAAAGTTAAATAAGGCTAGTCCGTTATCAACTTGAAAAAGTGGCACCGAGTCGGTGCT = −0.002203
cr607 (nucleic acid, listed as DNA, chemistry not fully specified) guide: GTTTAAGAGCTAAGCTGGAAACAGCATAGCAAGTTTAAATAAGGCTAGTCCGTTATCAACTTGAAAAAGTGGCACCGAACCGGTGCT = 0.6847

# Mean relative activity of cr951 (nucleic acid, listed as DNA, chemistry not fully specified) guide: GTTTAAGAGCTAAGCTGGAAACAGCATAGCAAGTTTAAATAAGGCTAGTCCGTTATCAACTTGAGAAAGTGGCTCCGAGTCGGAGCT = 1.034
